These entries and their values trace back to paper PMC4770715.

subject of test: LIMK1 (Homo sapiens, UniProt P53667)
Sequence (P53667 whole entry): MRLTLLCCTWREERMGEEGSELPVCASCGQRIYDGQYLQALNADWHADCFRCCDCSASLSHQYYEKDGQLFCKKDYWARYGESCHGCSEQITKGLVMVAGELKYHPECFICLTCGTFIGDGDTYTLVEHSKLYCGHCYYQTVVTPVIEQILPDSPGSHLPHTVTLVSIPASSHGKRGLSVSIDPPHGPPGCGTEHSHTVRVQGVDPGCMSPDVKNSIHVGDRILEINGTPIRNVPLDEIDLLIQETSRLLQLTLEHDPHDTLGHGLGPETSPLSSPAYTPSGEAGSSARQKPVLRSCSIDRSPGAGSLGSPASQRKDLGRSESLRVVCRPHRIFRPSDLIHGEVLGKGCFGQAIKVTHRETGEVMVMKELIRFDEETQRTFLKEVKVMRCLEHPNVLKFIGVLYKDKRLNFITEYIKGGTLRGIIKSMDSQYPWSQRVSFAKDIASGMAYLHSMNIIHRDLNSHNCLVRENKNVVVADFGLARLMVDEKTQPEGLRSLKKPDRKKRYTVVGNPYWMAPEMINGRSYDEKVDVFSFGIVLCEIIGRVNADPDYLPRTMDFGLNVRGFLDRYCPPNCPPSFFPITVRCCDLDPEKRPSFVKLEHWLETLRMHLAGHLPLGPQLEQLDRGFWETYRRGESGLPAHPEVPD
quantity: IC50
Answer format: number, then unit.

// recorded IC50 for COc1ccc(-c2cnccc2-c2cnc(NC(=O)C(C)C)s2)c(C(F)(F)F)c1 : 8 nM
